# System Under Test: human CCR8 (human) (UniProt P51685)
# Sequence (P51685 whole entry): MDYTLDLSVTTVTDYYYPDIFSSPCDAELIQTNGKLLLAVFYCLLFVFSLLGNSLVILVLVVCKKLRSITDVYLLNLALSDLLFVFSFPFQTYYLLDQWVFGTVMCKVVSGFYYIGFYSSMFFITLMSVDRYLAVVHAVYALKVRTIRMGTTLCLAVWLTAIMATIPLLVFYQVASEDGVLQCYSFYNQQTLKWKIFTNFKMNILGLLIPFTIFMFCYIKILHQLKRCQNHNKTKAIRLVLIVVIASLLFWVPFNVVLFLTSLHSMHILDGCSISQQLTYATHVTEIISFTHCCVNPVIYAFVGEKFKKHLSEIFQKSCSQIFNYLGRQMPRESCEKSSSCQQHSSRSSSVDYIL
# Experiment Notes: cell-based or functional assay
Measured Parameter: IC50 (n.d.: 10 nM or more)

h10A11 IGKV4-1/IGHV3-73 Y35F (antibody, name in Kabat numbering, V domains shown) VH: EVQLVESGGGLVQPGGSLKLSCAASGFAFNTYALFWVRQASGKGLEWVGRIRSKSNNYATYYADSVKDRFTISRDDSKNTAYLQMNSLKTEDTAVYYCTRARFYYSDYGYAMDYWGQGTLVTVSS VL: DIVMTQSPDSLAVSLGERATINCRSSKSLLHSNGNTYLYWYQQKPGQPPKLLIYRMSNLASGVPDRFSGSGSGTDFTLTISSLQAEDVAVYYCMQHLEYPLTFGQGTKLEIKR; > 10 nM
h10A11 IGKV4-1/IGHV3-73 F97L (antibody, name in Kabat numbering, V domains shown) VH: EVQLVESGGGLVQPGGSLKLSCAASGFAFNTYALYWVRQASGKGLEWVGRIRSKSNNYATYYADSVKDRFTISRDDSKNTAYLQMNSLKTEDTAVYYCTRARLYYSDYGYAMDYWGQGTLVTVSS VL: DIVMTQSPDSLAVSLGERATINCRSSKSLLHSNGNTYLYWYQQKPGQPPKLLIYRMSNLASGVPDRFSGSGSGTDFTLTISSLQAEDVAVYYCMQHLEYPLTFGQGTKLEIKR; > 10 nM

Kindly consider the entry below.
**Query** So what does the record say about IC50 (n.d.: 10 nM or more) for h10A11 IGKV4-1/IGHV3-73 R96K (antibody, name in Kabat numbering, V domains shown) VH: EVQLVESGGGLVQPGGSLKLSCAASGFAFNTYALYWVRQASGKGLEWVGRIRSKSNNYATYYADSVKDRFTISRDDSKNTAYLQMNSLKTEDTAVYYCTRAKFYYSDYGYAMDYWGQGTLVTVSS VL: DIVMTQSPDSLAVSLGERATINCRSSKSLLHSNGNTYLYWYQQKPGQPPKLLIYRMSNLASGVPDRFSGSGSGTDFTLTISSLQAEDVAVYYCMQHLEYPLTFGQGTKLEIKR ?
**Result** > 10 nM
